Consider the following binders; for each one, report its OD.
# Experimental target: T1, rat IL-17A (rat, UniProt Q61453 18-150, limits assumed)
# T1 sequence (looked up): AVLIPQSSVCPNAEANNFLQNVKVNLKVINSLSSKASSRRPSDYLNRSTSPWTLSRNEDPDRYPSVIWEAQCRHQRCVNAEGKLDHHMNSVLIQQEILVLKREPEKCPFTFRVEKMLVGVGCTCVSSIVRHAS
# Experimental details: ELISA, coated IL-17A
State the answer as a number, implicitly in OD.

Fill in the blank: the reported OD of 01A01 (VHH, Class 4) VHH: EVQLVESGGGLVQAGGSLRLSCAASGFTFDDYDIGWFRQAPGKEREGVSCFTSSDGRTFYADSVKGRFTVSADNAKNTVYLQMNSLEPEDTAVYFCAAVNTFDESAYAAFACYDVVRWGQGTQVTVSS is ____.
0.004

Fill in the blank: the reported OD of 13B03 (VHH, Class 4; also called IL17MS13B03) VHH: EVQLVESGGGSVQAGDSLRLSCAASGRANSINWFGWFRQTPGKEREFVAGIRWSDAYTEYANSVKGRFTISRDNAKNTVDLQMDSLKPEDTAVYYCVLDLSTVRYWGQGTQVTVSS is ____.
0.004

Fill in the blank: the reported OD of 04G01 (VHH, Class 2; also called IL17MS04G01) VHH: EVQLVESGGGLVQAGGSQRLSCTASGTIVNIHVMGWYRQAPGKQRELVALIFSGGSADYADSVKGRFTISRDNAKNTVYLEMNSLKAEDTAVYYCAAEIGYYSGGTYYSSEAHWGQGTQVTVSS is ____.
0.004
